Target: human Cereblon WT GST-tagged protein (Homo sapiens, UniProt Q96SW2)
Construct: purchased CISBIO 64BDCRBNPEH
Sequence (Q96SW2 whole entry): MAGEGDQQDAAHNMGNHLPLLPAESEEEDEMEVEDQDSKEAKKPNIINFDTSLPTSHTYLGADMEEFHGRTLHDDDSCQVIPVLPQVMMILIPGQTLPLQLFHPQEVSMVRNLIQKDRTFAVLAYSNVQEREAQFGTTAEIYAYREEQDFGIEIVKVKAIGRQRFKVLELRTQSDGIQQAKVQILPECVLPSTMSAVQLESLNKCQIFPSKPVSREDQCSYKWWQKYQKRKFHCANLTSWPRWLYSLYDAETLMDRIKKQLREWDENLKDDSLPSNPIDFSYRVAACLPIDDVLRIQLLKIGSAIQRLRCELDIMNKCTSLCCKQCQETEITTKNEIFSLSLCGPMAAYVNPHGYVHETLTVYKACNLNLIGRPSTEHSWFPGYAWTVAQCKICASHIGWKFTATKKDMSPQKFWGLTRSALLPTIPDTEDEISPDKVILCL
Test: CRBN binding, HTRF CEREBLON BINDING kit
Conditions: CRBN binding, HTRF CEREBLON BINDING kit
pIC50: −log10 of the molar value.
Property Label: pIC50

Consider the following illustrative entries.
[[record]]
compound = "O=C1CCN(c2ccc(CN3CCC(N4CCN(c5ccc6c(c5)nc(NC(=O)c5cccc(C(F)(F)F)c5)n6[C@H]5CC[C@@H](CO)CC5)CC4)CC3)cc2)C(=O)N1"
tested_target = "human Cereblon WT GST-tagged protein (Homo sapiens, UniProt Q96SW2)"
reading = "5.72 to 6.00"

[[record]]
compound = "O=C1CCC(c2ccc(CN3CCN(C4CCN(c5ccc(-c6cc(F)c7c(c6)C(=O)N(C(C(=O)Nc6nccs6)c6ncn8c6CCC8)C7)cc5)CC4)CC3)cc2)C(=O)N1 (stereo not drawn)"
tested_target = "human Cereblon WT GST-tagged protein (Homo sapiens, UniProt Q96SW2)"
reading = "> 6.30"

[[record]]
compound = "COc1cc(N2CCC(N3CCN(Cc4cccc(N5CCC(=O)NC5=O)c4)CC3)CC2)ccc1Nc1ncc(Cl)c(Nc2ccccc2P(C)(C)=O)n1"
tested_target = "human Cereblon WT GST-tagged protein (Homo sapiens, UniProt Q96SW2)"
reading = "5.72 to 6.00"


Could I get pIC50 for every one of these entries?
1. CN(Cc1ccnc(C2CCC(=O)NC2=O)c1)C1CCN(c2ccc(-c3cc(F)c4c(c3)C(=O)N(C(C(=O)Nc3nccs3)c3ncn5c3CCC5)C4)cc2)CC1 (stereo not drawn)
2. Cc1nc2c(F)cc(-c3nc(Nc4ccc(N5CCC(N(C)Cc6ccc(C7CCC(=O)NC7=O)cc6)CC5)cn4)ncc3F)cc2n1C(C)C (stereo not drawn)

Result ::
1. 6.00 to 6.30
2. 6.00 to 6.30

The compound listed as `CCc1cc2c(cc1N1CCC(N3CCN(Cc4ccc(N5CCC(=O)NC5=O)cc4F)CC3)CC1)C(C)(C)c1[nH]c3cc(C#N)ccc3c1C2=O` has a reported pIC50 of 6.00 to 6.30

----------
Field: pIC50. Provide a value for each of the compounds that follow.
Target: human Cereblon WT GST-tagged protein (Homo sapiens, UniProt Q96SW2)
Construct: purchased CISBIO 64BDCRBNPEH
Experiment: CRBN binding, HTRF CEREBLON BINDING kit
Conditions: CRBN binding, HTRF CEREBLON BINDING kit
pIC50: −log10 of the molar value.

// worked examples, pIC50 included
[[record]]
compound = "CN(Cc1ccc(N2CCC(=O)NC2=O)cc1)C1CCN(c2ccc(-c3cc(F)c4c(c3)C(=O)N(C(C(=O)Nc3nccs3)c3ncn5c3CCC5)C4)cc2)CC1 (stereo not drawn) [GT-05219]"
reading = "> 6.30"

[[record]]
compound = "O=C1CCN(c2cccc(CN3CCN(C4CCN(c5ccc(Nc6ncc7nc(Nc8ccccc8)n(C8CCCC8)c7n6)cc5)CC4)CC3)c2)C(=O)N1 [GT-05940]"
reading = "6.00 to 6.30"


The compound O=C1CCN(c2cc(CN3C[C@H]4C[C@@H]3CN4c3ccc(-c4cc(F)c5c(c4)C(=O)N(C(C(=O)Nc4nccs4)c4ncn6c4CCC6)C5)cc3)c(F)cn2)C(=O)N1 (stereo partly drawn) [GT-07386] showed pIC50 equal to 5.72 to 6.00

----------
Test system: SR
Test: CCK-8 tumor cell proliferation IC50, SR
Settings: Homo sapiens, SR cells, compounds designed based on the IRAK4 inhibitors, read-out: Inhibitory activity (IC50, nM) on tumor cell proliferation, SR
Property Label: IC50

# IC50 (compound: `Cc1cc(-c2nc(C(=O)Nc3cc4oc(N5CCOCC5)nc4nc3N3CC[C@@H](O)C3)co2)ccn1` ) is > 10000 nM

----------
Biological target: human Cereblon WT GST-tagged protein (Homo sapiens, UniProt Q96SW2)
Construct: purchased CISBIO 64BDCRBNPEH
Assay: CRBN binding, HTRF CEREBLON BINDING kit
Details: CRBN binding, HTRF CEREBLON BINDING kit
pIC50: −log10 of the molar value.
Record form. Attribute: pIC50. Fill in for each entry.

For each of the compounds below, state pIC50.
1. O=C1CCC(Nc2cccc(CN3CCC(N4CCN(c5ccc(-c6cc(F)c7c(c6)C(=O)N(C(C(=O)Nc6nccs6)c6ncn8c6CCC8)C7)cc5)CC4)CC3)c2)C(=O)N1 (stereo not drawn)
2. Cc1ccc(-c2c(C)noc2C)cc1N(CC1CCN(Cc2ccc(N3CCC(=O)NC3=O)cc2)CC1)c1ccc(C2(C#N)CC2)cc1
3. O=C1CCC(c2cc(CN3C[C@H]4C[C@@H]3CN4c3ccc(-c4cc(F)c5c(c4)C(=O)N(C(C(=O)Nc4nccs4)c4ncn6c4CCC6)C5)cc3)ccn2)C(=O)N1 (stereo partly drawn)

Result ::
1: 5.72 to 6.00; 2: 6.00 to 6.30; 3: 6.00 to 6.30

----------
Target: human Cereblon WT GST-tagged protein (Homo sapiens)
Construct: purchased CISBIO 64BDCRBNPEH
Experiment: CRBN binding, HTRF CEREBLON BINDING kit
Conditions: CRBN binding, HTRF CEREBLON BINDING kit
Exercise: for every item that follows, state its recorded IC50.

Some solved entries appear below for comparison.
[[record]]
molecule = "COc1cc(N2CCC(N3CCN(Cc4cc(C5CCC(=O)NC5=O)cnc4F)CC3)CC2)ccc1Nc1ncc(Cl)c(Nc2ccccc2P(C)(C)=O)n1 (stereo not drawn)"
reading = "500 to 1000 nM"

[[record]]
molecule = "O=C1CCN(c2ccc(CN3CCN(c4ccc(-c5cc(F)c6c(c5)C(=O)N(C(C(=O)Nc5nccs5)c5ncn7c5CCC7)C6)cc4)CC3)nc2)C(=O)N1 (stereo not drawn)"
reading = "500 to 1000 nM"

[[record]]
molecule = "COc1cc(N2CCC(N(C)Cc3cccc(N4CCC(=O)NC4=O)c3)CC2)ccc1Nc1ncc(Cl)c(Nc2ccccc2P(C)(C)=O)n1"
reading = "1000 to 1900 nM"

[[record]]
molecule = "CN(Cc1cc(C2CCC(=O)NC2=O)cnc1F)C1CCN(c2ccc(-c3cc(F)c4c(c3)C(=O)N(C(C(=O)Nc3nccs3)c3ncn5c3CCC5)C4)cc2)CC1 (stereo not drawn)"
reading = "< 500 nM"

[[record]]
molecule = "COc1cc2nn(C3CCN(Cc4ccc(C5CCC(=O)NC5=O)c(F)c4)CC3)cc2cc1NC(=O)c1cccc(C(F)(F)F)n1 (stereo not drawn)"
reading = "1000 to 1900 nM"


Let us move to another entry and its IC50.
For `O=C1CCN(c2ccc(CN3CCC(n4cc(NC(=O)c5cnn6ccc(N7CCOCC7)nc56)c(C(F)F)n4)CC3)cc2)C(=O)N1` the molecule record lists IC50 as < 500 nM

----------
Molecular target: human Cereblon WT GST-tagged protein (Homo sapiens, UniProt Q96SW2)
Construct: purchased CISBIO 64BDCRBNPEH
Assay: CRBN binding, HTRF CEREBLON BINDING kit
Conditions: CRBN binding, HTRF CEREBLON BINDING kit
pIC50: −log10 of the molar value.
I'd be grateful if you could share measured pIC50 for these entries.

Give pIC50 for each of the items listed below.
1. O=C1CCC(Nc2cccc(CN3CCC(n4cc(NC(=O)c5cnn6ccc(N7CCOCC7)nc56)c(C(F)F)n4)CC3)c2)C(=O)N1 (centres unmarked)
2. Cc1nc2c(F)cc(-c3nc(Nc4ccc(CN5CCN(Cc6ccc(N7CCC(=O)NC7=O)cc6)CC5)cn4)ncc3F)cc2n1C(C)C
3. COc1cc2nn(C3CCN(Cc4ccc(C5CCC(=O)NC5=O)cc4)CC3)cc2cc1NC(=O)c1cccc(C(F)(F)F)c1 (centres unmarked)
4. O=C1CCN(c2ccc(CN3CCC(N4CCN(c5ccc(-c6cc(F)c7c(c6)C(=O)N(C(C(=O)Nc6nccs6)c6ncn8c6CCC8)C7)cc5)CC4)CC3)cc2)C(=O)N1 (centres unmarked)
5. Cc1ccc(-c2c(C)noc2C)cc1N(CC1CCN(Cc2ccc(N3CCC(=O)NC3=O)cc2F)CC1)c1ccc(C2(C#N)CC2)cc1
6. O=C1CCC(c2ccc(CN3C[C@H]4C[C@@H]3CN4c3ccc(-c4cc(F)c5c(c4)C(=O)N(C(C(=O)Nc4nccs4)c4ncn6c4CCC6)C5)cc3)nc2)C(=O)N1 (some centres unmarked)
7. COc1cc2nn(C3CCN(Cc4cccc(N5CCC(=O)NC5=O)c4)CC3)cc2cc1NC(=O)c1cccc(C(F)(F)F)c1
8. Cc1nc2c(F)cc(-c3nc(Nc4ccc(N5CCC(N(C)Cc6cccc(N7CCC(=O)NC7=O)c6)CC5)cn4)ncc3F)cc2n1C(C)C

Result ::
6.00 to 6.30
5.72 to 6.00
6.00 to 6.30
6.00 to 6.30
5.72 to 6.00
> 6.30
5.72 to 6.00
5.72 to 6.00

Below are 2 compounds. Give each one its pIC50.
1. COc1cc(N2CCC(N3CCN(Cc4cccc(NC5CCC(=O)NC5=O)c4)CC3)CC2)ccc1Nc1ncc(Cl)c(Nc2ccccc2P(C)(C)=O)n1 (centres unmarked)
2. CC(C)n1nc(N2CCC(N3CCN(Cc4cccc(N5CCC(=O)NC5=O)c4)CC3)CC2)c2cnc(Nc3ccnc(-c4cnn(S(=O)(=O)C5CC5)c4)n3)cc21

Result ::
["5.72 to 6.00", "6.00 to 6.30"]

For every item below, please supply its pIC50.
1. C=CC(=O)N1CCC(c2ccc(C(N)=O)c(-c3ccc(Oc4ccccc4)cc3)n2)CC1 [Orelabrutinib, reference compound]
2. Cc1ccc(-c2c(C)noc2C)cc1N(CC1CCN(Cc2cccc(N3CCC(=O)NC3=O)c2)CC1)c1ccc(C2(C#N)CC2)cc1
3. O=C1CCC(c2ccc(CN3C4CCC3CN(c3ccc(-c5cc(F)c6c(c5)C(=O)N(C(C(=O)Nc5nccs5)c5ncn7c5CCC7)C6)cc3)C4)cc2)C(=O)N1 (centres unmarked)

Result ::
1. < 5.00
2. 5.72 to 6.00
3. > 6.30

The reported value for Cc1nc2c(F)cc(-c3nc(Nc4ccc(N5CCC(N6CCN(Cc7cccc(NC8CCC(=O)NC8=O)c7)CC6)CC5)cn4)ncc3F)cc2n1C(C)C (centres unmarked) in terms of pIC50 is 5.72 to 6.00
